System: Klebsiella 63
test_summary: MIC, test tube series dilution test, Klebsiella 63
Format: cell-based
details: Klebsiella 63; 24 hours, 37°C
measurement_label: MIC (U/ml)
# number only, unit U/ml dropped from output

compound	unit_of_measurement	reported_measurement
CC1(C)S[C@@H]2[C@H](NC(=O)[C@H](NC(=O)c3ccc(NC(=O)c4ccc(N)cc4)cc3)c3ccccc3)C(=O)N2[C@H]1C(=O)O	U/ml	64
CC1(C)S[C@@H]2[C@H](NC(=O)[C@H](NC(=O)c3ccc(NC(=O)c4ccc(N=[N+]=[N-])cc4)cc3)c3ccccc3)C(=O)N2[C@H]1C(=O)O	U/ml	4
CC1(C)S[C@@H]2[C@H](NC(=O)[C@H](NC(=O)c3ccc(NC(=O)C4CC=CCC4)cc3)c3ccccc3)C(=O)N2[C@H]1C(=O)O (single isomer, unassigned)	U/ml	32
CC1(C)S[C@@H]2[C@H](NC(=O)[C@H](NC(=O)c3ccc(NC(=O)c4ccc(F)cc4)cc3)c3ccccc3)C(=O)N2[C@H]1C(=O)O	U/ml	32

response.value for CNC(=S)Nc1ccc(C(=O)N[C@@H](C(=O)N[C@@H]2C(=O)N3[C@@H]2SC(C)(C)[C@@H]3C(=O)O)c2ccccc2)cc1 (field: MIC) = 128
